Assignment: determine reported relative viability for the given compounds.
Test system: SW 900
Method Summary: relative viability (nuclei count vs DMSO), 5 days (fraction); higher = more cells survive
Run Conditions: first compound 2.53 µM
Give bare numbers.

Take a look at these entries with their results.
Compound	relative viability
Cc1cnc(-c2cnc(NCCNc3ccc(C#N)cn3)nc2-c2ccc(Cl)cc2Cl)[nH]1 + Cc1cc(Nc2cc(N3CCN(C)CC3)nc(Sc3ccc(NC(=O)C4CC4)cc3)n2)n[nH]1 [Tozasertib] (partner 0.1 µM)	0.415
Cc1cnc(-c2cnc(NCCNc3ccc(C#N)cn3)nc2-c2ccc(Cl)cc2Cl)[nH]1 + COc1cccc2cc(-c3nc([C@H]4CC[C@H](C(=O)O)CC4)n4ncnc(N)c34)[nH]c12 [OSI-027] (partner 0.5 µM)	0.546
Cc1cnc(-c2cnc(NCCNc3ccc(C#N)cn3)nc2-c2ccc(Cl)cc2Cl)[nH]1 + CC(=O)Nc1cccc(-n2c(=O)n(C3CC3)c(=O)c3c(Nc4ccc(I)cc4F)n(C)c(=O)c(C)c32)c1 [Trametinib] (partner 0.02 µM)	0.765

--- query ---
QUERY: Can you share its relative viability? I mean this compound: O=c1[nH]c2ccccc2n1C1CCN(CCCC(c2ccc(F)cc2)c2ccc(F)cc2)CC1 [Pimozide] + COc1cc2c(Oc3ccc(NC(=O)C4(C(=O)Nc5ccc(F)cc5)CC4)cc3F)ccnc2cc1OCCCN1CCOCC1 [Foretinib] (partner 0.25 µM)
RESULT: 0.746

* * *

Tested on: HCC-44
Method Summary: relative viability (nuclei count vs DMSO), 5 days (fraction); higher = more cells survive
Run Conditions: first compound 0.002 µM
Recorded Metric: relative viability
Give bare numbers.

Take a look at these entries with their results.
Compound	relative viability
CC(=O)O[C@@]12CO[C@@H]1C[C@H](O)[C@@]1(C)C(=O)[C@H](O)C3=C(C)[C@@H](OC(=O)[C@H](O)[C@@H](NC(=O)OC(C)(C)C)c4ccccc4)C[C@@](O)([C@@H](OC(=O)c4ccccc4)[C@H]21)C3(C)C [Docetaxel] + CS(=O)(=O)N1CCN(Cc2cc3nc(-c4cccc5[nH]ncc45)nc(N4CCOCC4)c3s2)CC1 [Pictilisib] (partner 1 µM)	0.421
CC(=O)O[C@@]12CO[C@@H]1C[C@H](O)[C@@]1(C)C(=O)[C@H](O)C3=C(C)[C@@H](OC(=O)[C@H](O)[C@@H](NC(=O)OC(C)(C)C)c4ccccc4)C[C@@](O)([C@@H](OC(=O)c4ccccc4)[C@H]21)C3(C)C [Docetaxel] + CC(=O)c1c(C)c2cnc(Nc3ccc(N4CCNCC4)cn3)nc2n(C2CCCC2)c1=O [Palbociclib] (partner 0.5 µM)	0.968
CC(=O)O[C@@]12CO[C@@H]1C[C@H](O)[C@@]1(C)C(=O)[C@H](O)C3=C(C)[C@@H](OC(=O)[C@H](O)[C@@H](NC(=O)OC(C)(C)C)c4ccccc4)C[C@@](O)([C@@H](OC(=O)c4ccccc4)[C@H]21)C3(C)C [Docetaxel] + CC(C)C[C@H](NC(=O)[C@H](Cc1ccccc1)NC(=O)c1cnccn1)B(O)O [Bortezomib] (partner 0.002 µM)	0.57
CC(=O)O[C@@]12CO[C@@H]1C[C@H](O)[C@@]1(C)C(=O)[C@H](O)C3=C(C)[C@@H](OC(=O)[C@H](O)[C@@H](NC(=O)OC(C)(C)C)c4ccccc4)C[C@@](O)([C@@H](OC(=O)c4ccccc4)[C@H]21)C3(C)C [Docetaxel] + Nc1nc2[nH]cc(CCc3ccc(C(=O)N[C@@H](CCC(=O)O)C(=O)O)cc3)c2c(=O)[nH]1 [Pemetrexed] (partner 0.2 µM)	0.628

QUERY: Can you share its relative viability? I mean this compound: CC(=O)O[C@@]12CO[C@@H]1C[C@H](O)[C@@]1(C)C(=O)[C@H](O)C3=C(C)[C@@H](OC(=O)[C@H](O)[C@@H](NC(=O)OC(C)(C)C)c4ccccc4)C[C@@](O)([C@@H](OC(=O)c4ccccc4)[C@H]21)C3(C)C [Docetaxel] + C[C@@H](Oc1cc(-c2cnn(C3CCNCC3)c2)cnc1N)c1c(Cl)ccc(F)c1Cl [Crizotinib] (partner 1 µM)
RESULT: 0.483
